Taken from patent US12466834B2.

# Measured target: human TRPC5 (Homo sapiens)
# Protocol: FLIPR calcium assay, compound activation (agonism) of TRPC5 calcium response
# Measurement parameters: ICLN-1633 cells; Fluo-4 calcium response; read-out: Agonist Potency Range (FLIPR)
Catalogue of compounds with associated EC50

Request: // EC50 lookup, key: "CCCOc1nc2c(n1Cc1ccc(Cl)cc1)C(=O)N(CCCO)C(=O)[C@H]1CCCN21"
Result: 1 to 10 µM

Request: // EC50 lookup, key: "CN1CC(=O)N(CCCO)C(=O)c2c1nc(Oc1cccc(OC(F)(F)F)c1)n2Cc1ccc(Cl)cc1"
Result: > 10 µM

Request: // EC50 lookup, key: "CCCOc1nc2c(n1Cc1ccc(Cl)cc1)C(=O)N(CCCO)C(=O)[C@@H]1CCCN21"
Result: 0.001 to 1 µM

Request: // EC50 lookup, key: "O=C1c2c(nc(Oc3cccc(F)c3)n2Cc2ccc(Cl)cc2)N2CCC[C@@H]2C(=O)N1CCCO"
Result: 0.001 to 1 µM

Request: // EC50 lookup, key: "CC(C)Oc1nc2c(n1Cc1ccc(Cl)cc1)C(=O)N(CCCO)C(=O)[C@@H]1CCCN21"
Result: 0.001 to 1 µM

Request: // EC50 lookup, key: O=C1c2c(nc(Oc3cccc(OC(F)(F)F)c3)n2Cc2ccc(Cl)cc2)N2CCC[C@@H]2C(=O)N1CCCO (single isomer, unassigned)
Result: > 10 µM

Request: // EC50 lookup, key: "CC(C)Oc1nc2c(n1Cc1ccc(Cl)cc1)C(=O)N(CCCO)C(=O)[C@H]1CCCN21"
Result: 1 to 10 µM

Request: // EC50 lookup, key: O=C1c2c(nc(Oc3cccc(OC(F)(F)F)c3)n2Cc2ccc(Cl)cc2)N2CCC[C@H]2C(=O)N1CCCO (single isomer, unassigned)
Result: 1 to 10 µM

###

Catalogue of compounds with associated pIC50
# Measured target: human TRPC5 (Homo sapiens, UniProt Q9UL62)
# Construct: expressed in transfected cells
# Sequence (Q9UL62 whole entry): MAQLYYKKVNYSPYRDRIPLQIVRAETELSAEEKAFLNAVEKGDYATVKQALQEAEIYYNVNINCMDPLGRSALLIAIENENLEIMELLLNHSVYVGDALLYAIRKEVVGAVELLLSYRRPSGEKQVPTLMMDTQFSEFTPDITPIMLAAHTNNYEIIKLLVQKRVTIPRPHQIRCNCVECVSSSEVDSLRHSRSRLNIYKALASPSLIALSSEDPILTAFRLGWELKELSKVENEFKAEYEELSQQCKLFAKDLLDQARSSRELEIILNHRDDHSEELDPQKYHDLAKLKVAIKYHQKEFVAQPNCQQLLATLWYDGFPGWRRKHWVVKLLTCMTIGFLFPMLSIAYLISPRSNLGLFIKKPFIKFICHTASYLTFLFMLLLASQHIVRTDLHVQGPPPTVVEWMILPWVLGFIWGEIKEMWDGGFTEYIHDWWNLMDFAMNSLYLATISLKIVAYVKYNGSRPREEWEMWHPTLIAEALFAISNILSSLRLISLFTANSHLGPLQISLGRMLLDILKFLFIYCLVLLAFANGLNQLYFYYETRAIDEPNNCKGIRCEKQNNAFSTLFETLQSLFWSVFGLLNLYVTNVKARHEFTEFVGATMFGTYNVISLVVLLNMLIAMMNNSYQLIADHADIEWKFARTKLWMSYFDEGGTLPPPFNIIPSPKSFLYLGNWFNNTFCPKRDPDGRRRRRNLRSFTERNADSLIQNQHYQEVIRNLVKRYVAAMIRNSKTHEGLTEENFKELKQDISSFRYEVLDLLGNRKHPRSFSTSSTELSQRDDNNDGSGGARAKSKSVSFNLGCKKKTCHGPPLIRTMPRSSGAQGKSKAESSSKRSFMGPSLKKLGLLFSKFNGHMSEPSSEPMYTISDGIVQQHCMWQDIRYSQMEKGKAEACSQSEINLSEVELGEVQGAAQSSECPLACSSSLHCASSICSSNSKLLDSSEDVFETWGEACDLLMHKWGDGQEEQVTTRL
# Protocol: FLIPR calcium assay, inhibition of riluzole-activated TRPC5 calcium response
# Assay type: cell-based
# Measurement parameters: ICLN-1633 cells; riluzole 30 μM stimulation; Fluo-4 calcium response; read-out: Inhibitor Potency Range (FLIPR)
# Method: ICLN-1633 cells (HEK-TREx hTRPC5) expressing TRPC5 were generated as follows. […] Human ICLN-1633 cells expressing were plated onto 384 well, black poly-D-lysine-coated microplates and maintained in TRPC5 growth media the day prior to use for experiments. […] The FLIPR measured a 10 second baseline and then added 10 μl of 2× compounds (or controls). Changes in fluorescence were monitored for an additional 5 minutes. […] Compound inhibition of TRPC5 calcium response was determined as follows. […]
pIC50: −log10 of the molar value.

# count of solved cases: 3
Compound: O=C1c2c(nc(Oc3cccc(F)c3)n2Cc2ccc(Cl)cc2)N2CCC[C@H]2C(=O)N1CCCO
pIC50: 6.00 to 9.00
--
Compound: CN1C(=O)CN(CCCO)C(=O)c2c1nc(Oc1cccc(F)c1)n2Cc1ccc(Cl)cc1
pIC50: 5.00 to 6.00
--
Compound: CCCCn1c(Oc2cccc(OC(F)(F)F)c2)nc2c1C(=O)N(CCCO)CC(=O)N2C
pIC50: 5.00 to 6.00

Request: // pIC50 lookup, key: "CC(C)Oc1nc2c(n1Cc1ccc(Cl)cc1)C(=O)N(CCCO)C(=O)[C@@H]1CCCN21"
Result: < 5.00

###

# Measured target: human TRPC5 (Homo sapiens)
# Construct: expressed in transfected cells
# Protocol: Automated patch clamp assay (QPatch), antagonist mode
# Type: cell-based
# Measurement parameters: HEK-TREx hTRPC5 cells; channel activated with Rosiglitazone 30 μM; normalised to ML-204 block; read-out: Qpatch Potency Range
pIC50: −log10 of the molar value.
Catalogue of molecules with associated pIC50

Request: // pIC50 lookup, key: C[C@H]1C(=O)N(C)c2nc(Oc3cccc(F)c3)n(Cc3ccc(Cl)cc3)c2C(=O)N1CCCO (single isomer, unassigned)
Result: 4.52 to 6.00

Request: // pIC50 lookup, key: CCCCn1c(Oc2cccc(F)c2)nc2c1C(=O)N(CCCO)C(=O)[C@@H]1CCCN21 (single isomer, unassigned)
Result: 6.00 to 9.00

Request: // pIC50 lookup, key: CN1C(=O)CN(CC(O)CO)C(=O)c2c1nc(Oc1cccc(OC(F)(F)F)c1)n2Cc1ccc(Cl)cc1 (centres unmarked)
Result: 4.52 to 6.00

Request: // pIC50 lookup, key: C[C@H](c1ccc(Cl)cc1)n1c(Oc2cccc(F)c2)nc2c1C(=O)N(CCCO)CC(=O)N2C (single isomer, unassigned)
Result: < 4.52

Request: // pIC50 lookup, key: C[C@@H]1C(=O)N(C)c2nc(Oc3cccc(F)c3)n(Cc3ccc(Cl)cc3)c2C(=O)N1CCCO (single isomer, unassigned)
Result: < 4.52

Request: // pIC50 lookup, key: O=C1c2c(nc(Oc3cccc(OC(F)(F)F)c3)n2Cc2ccc(Cl)cc2)N2CCC[C@H]2C(=O)N1CCCO (single isomer, unassigned)
Result: < 4.52

Request: // pIC50 lookup, key: "CN1CCN(CCCO)C(=O)c2c1nc(Oc1cccc(OC(F)(F)F)c1)n2Cc1ccc(Cl)cc1"
Result: 4.52 to 6.00

Request: // pIC50 lookup, key: C[C@@H](c1ccc(Cl)cc1)n1c(Oc2cccc(F)c2)nc2c1C(=O)N(CCCO)CC(=O)N2C (single isomer, unassigned)
Result: 4.52 to 6.00

###

# Measured target: human TRPC5 (Homo sapiens)
# Construct: expressed in transfected cells
# Protocol: FLIPR calcium assay, inhibition of riluzole-activated TRPC5 calcium response
# Format: cell-based
# Measurement parameters: ICLN-1633 cells; riluzole 30 μM stimulation; Fluo-4 calcium response; read-out: Inhibitor Potency Range (FLIPR)
Measured endpoint: IC50

Compound: CN1C(=O)CN(CCCO)C(=O)c2c1nc(Oc1cccc(OC(F)(F)F)c1)n2Cc1ccc(Cl)cc1
Measured endpoint: IC50
Value: 1 to 10 µM
--
Compound: O=C1c2c(nc(Oc3cccc(OC(F)(F)F)c3)n2Cc2ccc(Cl)cc2)N2CCC[C@H]2CN1CCCO (single isomer, unassigned)
Measured endpoint: IC50
Value: 1 to 10 µM

Now for the compound whose IC50 we want.
Request: // IC50 lookup, key: "CN1C(=O)CN(CC(F)(F)CO)C(=O)c2c1nc(Oc1cccc(OC(F)(F)F)c1)n2Cc1ccc(Cl)cc1"
Result: 1 to 10 µM
